Where these numbers come from: PubChem BioAssay AID777

- target-under-test: Cytochrome P450 2C9 (Homo sapiens)
- measurement-protocol: blockers of cytochrome P450 2C9 activity – biochemical, luminescence, ADME assay, primary screen (AID 777)
- condition-label: CYP2C9 Supersomes, luciferin-H conversion, at 5 µM, stronger effect = higher value
Among all 96,000 compounds or so, about 19,000 (20%) were called active. The list is a sample of the results.
Overview of reported inhibition across a group of compounds:
value-kind: inhibition (%)

{"compound": "COc1ccccc1C1=Nc2cccc3cccc(c23)N1", "experimental-result": 24}
{"compound": "COC(=O)Nc1ncc(CN2C(=O)c3ccccc3C2=O)s1", "experimental-result": -12}
{"compound": "COCCn1c(SCc2nc3cc(OC)c(OC)cc3c(=O)[nH]2)nnc1-c1ccncc1", "experimental-result": -18.5}
{"compound": "COc1cc2c(cc1OC)C(C(=O)NCc1ccco1)C1c3ccccc3CCN1C2=O (stereo unspecified)", "experimental-result": 42}
{"compound": "C=CCn1c(SCc2cc(C(=O)OC)c(C)o2)nnc1-c1ccncc1", "experimental-result": 57.4}
{"compound": "CC(C)OCCCNC(=O)C1CC(=O)N(C2CCCCCCC2)C1 (stereo unspecified)", "experimental-result": -4.2}
{"compound": "CCc1nnc(NC(=O)CSc2nnc(-c3ccncc3)n2Cc2ccccc2)s1", "experimental-result": 26.1}
{"compound": "CC(CC(=O)Nc1cc(C(F)(F)F)ccc1Cl)c1ccccc1 (stereo unspecified)", "experimental-result": -141}
{"compound": "CCN1CCN(C(=O)CN(C)S(=O)(=O)c2ccc(OC)cc2)CC1", "experimental-result": -20.1}
{"compound": "C=CCn1c(SCc2c(C(=O)OC)sc(N)c2C(=O)OC)nnc1-c1ccc(Cl)cc1", "experimental-result": 79}
{"compound": "C=CCn1c(CC(=O)Nc2cccc(OC)c2)nnc1SCC(=O)NC1CCCCC1", "experimental-result": 10}
